Reference source: patent US9505798B2

Biological target: mouse RORγt (Mus musculus, UniProt P51450)
Construct: mouse RORγt (amino acids 79 to the carboxyl terminal end); expressed in transfected cells
Sequence (P51450 79-495 isoform P51450-2): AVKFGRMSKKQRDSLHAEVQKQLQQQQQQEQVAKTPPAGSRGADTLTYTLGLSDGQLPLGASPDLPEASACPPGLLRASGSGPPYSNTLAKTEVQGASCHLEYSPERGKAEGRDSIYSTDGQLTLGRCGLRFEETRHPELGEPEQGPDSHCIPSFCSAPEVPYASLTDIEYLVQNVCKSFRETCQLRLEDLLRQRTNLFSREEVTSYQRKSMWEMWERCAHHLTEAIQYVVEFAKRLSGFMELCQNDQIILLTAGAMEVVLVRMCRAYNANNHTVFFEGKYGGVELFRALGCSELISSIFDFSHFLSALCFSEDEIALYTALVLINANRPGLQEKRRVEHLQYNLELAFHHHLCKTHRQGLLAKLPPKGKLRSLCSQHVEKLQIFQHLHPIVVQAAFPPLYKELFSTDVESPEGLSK
Assay: Drosophila S2 cell RORγt luciferase reporter
Format: cell-based
measuredProperty: IC50

Some entries whose results are on file:
- molecule: "CC1O[C@@H](OC2C(C)O[C@H](OC3C(C)O[C@@H](O[C@H]4CC[C@@]5(C)[C@H](CC[C@@H]6[C@@H]5C[C@@H](O)[C@]5(C)[C@@H](C7CC(O)OC7Cc7ccccc7O)CC[C@]65O)C4)C[C@H]3O)C[C@H]2O)C[C@@H](O)C1O (stereo partly drawn) [Compound 20]"
  IC50: "> 20 µM"
- molecule: "CC1O[C@@H](OC2C(C)O[C@H](OC3C(C)O[C@@H](O[C@H]4CC[C@@]5(C)[C@H](CC[C@@H]6[C@@H]5C[C@@H](O)[C@]5(C)[C@@H](C7=CC(=O)OC7Cc7ccccc7O)CC[C@]65O)C4)C[C@H]3O)C[C@H]2O)C[C@@H](O)C1O (stereo partly drawn) [Compound 18, Digoxin-21-salicylyl]"
  IC50: "< 1 µM"
- molecule: "CC1O[C@@H](OC2C(C)O[C@H](OC3C(C)O[C@@H](O[C@H]4CC[C@@]5(C)[C@H](CC[C@@H]6[C@@H]5C[C@@H](O)[C@]5(C)[C@@H](C7CC(=O)OC7Cc7ccccc7O)CC[C@]65O)C4)C[C@H]3O)C[C@H]2O)C[C@@H](O)C1O (stereo partly drawn) [Compound 19]"
  IC50: "1 to 10 µM"
- molecule: "CC(=O)OC1C(C)O[C@@H](OC2C(C)O[C@H](OC3C(C)O[C@@H](O[C@H]4CC[C@@]5(C)[C@H](CC[C@@H]6[C@@H]5C[C@@H](OC(C)=O)[C@]5(C)[C@@H](C7=CC(=O)OC7)CC[C@]65O)C4)C[C@H]3OC(C)=O)C[C@H]2OC(C)=O)C[C@H]1OC(C)=O (stereo partly drawn) [Compound 21]"
  IC50: "> 20 µM"
- molecule: "CC1OC(OC2C(O)CC(OC3C(O)CC(OC4CCC5(C)C(CCC6C5CC(O)C5(C)C(C7=CC(=O)OC7=Cc7ccccc7O)CCC65O)C4)OC3C)OC2C)CC(O)C1O (stereo not drawn) [Compound 15, Digoxin-21-salicylidene]"
  IC50: "< 1 µM"

Turning to the following molecule.
Prompt: Annotate the molecule CC1O[C@@H](OC2C(C)O[C@H](OC3C(C)O[C@@H](O[C@H]4CC[C@@]5(C)[C@H](CC[C@@H]6[C@@H]5C[C@@H](O)[C@]5(C)[C@@H](C(CO)CCO)CC[C@]65O)C4)C[C@H]3O)C[C@H]2O)C[C@@H](O)C1O (stereo partly drawn) [Compound 13, 20,22-Dihydrodigoxin-21,23-diol] with its measured IC50.
Response: 11 to 20 µM

====

target: mouse RORγt (Mus musculus); construct: mouse RORγt (amino acids 79 to the carboxyl terminal end); expressed in transfected cells; experiment: Drosophila S2 cell RORγt luciferase reporter; assay type: cell-based; conditions: S2 cell RORγt reporter; read-out: IC50
pIC50: −log10 of the molar value.
measuredProperty: pIC50

Report pIC50 for each item below.
1. COC(=O)C1CCC2(O)C3CCC4CC(OC5CC(O)C(OC6CC(O)C(OC7CC(O)C(O)C(C)O7)C(C)O6)C(C)O5)CCC4(C)C3CC(O)C12C (centres unmarked) [Compound 24]
2. C[C@H]1O[C@@H](O[C@H]2[C@@H](O)C[C@H](O[C@H]3[C@@H](O)C[C@H](O[C@H]4CC[C@@]5(C)[C@H](CC[C@@H]6[C@@H]5C[C@@H](O)[C@]5(C)[C@@H](C7=CC(=O)OC7)CC[C@]65O)C4)O[C@@H]3C)O[C@@H]2C)C[C@H](O)[C@@H]1O [Digoxin]

Response:
1. 5.00 to 6.00
2. 5.00 to 6.00
